Assay: Test of solubility in water for injection
Format: physicochemical
Conditions: stirred at 37° C. for 1 hour, HPLC Method A
Counter-ions that a name gives are not always drawn.
VALUE_TYPE: Solubility in water for injection (µg/mL)

CC#C/C(=N\OC[C@H]1COCCN1)c1ccc2ncnc(Nc3ccc(OCc4cccc(F)c4)c(Cl)c3)c2c1 [Monohydrochloride crystal Form VI]	12.9
CC#C/C(=N\OC[C@H]1COCCN1)c1ccc2ncnc(Nc3ccc(OCc4cccc(F)c4)c(Cl)c3)c2c1 [Monohydrochloride crystal Form V]	14.0
CC#C/C(=N\OC[C@H]1COCCN1)c1ccc2ncnc(Nc3ccc(OCc4cccc(F)c4)c(Cl)c3)c2c1 [Monohydrochloride crystal Form I]	34.5

I = CC#C/C(=N\OC[C@H]1COCCN1)c1ccc2ncnc(Nc3ccc(OCc4cccc(F)c4)c(Cl)c3)c2c1 [Monohydrochloride crystal Form II]
II = CC#C/C(=N\OC[C@H]1COCCN1)c1ccc2ncnc(Nc3ccc(OCc4cccc(F)c4)c(Cl)c3)c2c1 [Mono-p-toluenesulfonate crystal Form I]
INPUT: Given I and II , report the one with the higher recorded Solubility in water for injection. Refer to your chosen item by its label in the answer.
OUTPUT: I

* * *

Assay: Light exposure test (photostability)
Assay type: physicochemical
Settings: light exposed sample minus dark control
Where a name gives a salt, the structure may show the parent alone.
VALUE_TYPE: E isomer (Retention time 38 minutes), Increased amount (area %)

1 = CC#C/C(=N\OC[C@H]1COCCN1)c1ccc2ncnc(Nc3ccc(OCc4cccc(F)c4)c(Cl)c3)c2c1 [Monohydrochloride crystal Form I]
2 = CC#C/C(=N\OC[C@H]1COCCN1)c1ccc2ncnc(Nc3ccc(OCc4cccc(F)c4)c(Cl)c3)c2c1 [Monohydrochloride crystal Form II]
3 = CC#C/C(=N\OC[C@H]1COCCN1)c1ccc2ncnc(Nc3ccc(OCc4cccc(F)c4)c(Cl)c3)c2c1 [Mono-p-toluenesulfonate crystal Form I]
4 = CC#C/C(=N\OC[C@H]1COCCN1)c1ccc2ncnc(Nc3ccc(OCc4cccc(F)c4)c(Cl)c3)c2c1 [Free base crystal]
INPUT: // ascending sort on E isomer (Retention time 38 minutes), Increased amount for the entries above Submit the labels in the order that the ranking request calls for.
OUTPUT: 2, 4, 1, 3
(2: −0.23 area %, 4: 2.59 area %, 1: 3.78 area %, 3: 32.76 area %)

* * *

Experiment: Light exposure test (photostability)
Format: physicochemical
Conditions: D65 lamp, total illuminance about 1.2 million lx·hr, HPLC Method B
Counter-ions that a name gives are not always drawn.
VALUE_TYPE: E isomer (Retention time 38 minutes), Light exposed sample (area %)

CC#C/C(=N\OC[C@H]1COCCN1)c1ccc2ncnc(Nc3ccc(OCc4cccc(F)c4)c(Cl)c3)c2c1 [Free base crystal]	2.59

P = CC#C/C(=N\OC[C@H]1COCCN1)c1ccc2ncnc(Nc3ccc(OCc4cccc(F)c4)c(Cl)c3)c2c1 [Mono-p-toluenesulfonate crystal Form I]
Q = CC#C/C(=N\OC[C@H]1COCCN1)c1ccc2ncnc(Nc3ccc(OCc4cccc(F)c4)c(Cl)c3)c2c1 [Monohydrochloride crystal Form II]
R = CC#C/C(=N\OC[C@H]1COCCN1)c1ccc2ncnc(Nc3ccc(OCc4cccc(F)c4)c(Cl)c3)c2c1 [Monohydrochloride crystal Form I]
INPUT: Rank the 3 compounds: largest E isomer (Retention time 38 minutes), Light exposed sample first, smallest last. Submit the labels in the order that the ranking request calls for.
OUTPUT: P, R, Q
(P: 32.86 area %, R: 4.41 area %, Q: 1.21 area %)

Sourced from patent US10513513B2
